Molecular target: T1, Ku D247A (Mycobacterium tuberculosis, UniProt P9WKD9 1-273, D247A)
T1 sequence: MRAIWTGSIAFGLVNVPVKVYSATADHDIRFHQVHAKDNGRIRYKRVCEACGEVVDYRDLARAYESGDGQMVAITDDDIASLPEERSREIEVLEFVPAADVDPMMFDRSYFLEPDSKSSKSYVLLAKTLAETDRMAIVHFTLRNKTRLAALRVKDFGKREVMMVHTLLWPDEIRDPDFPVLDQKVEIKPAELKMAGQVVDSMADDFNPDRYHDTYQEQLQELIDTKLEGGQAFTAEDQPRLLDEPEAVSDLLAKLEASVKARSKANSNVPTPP
Assay: EMSA; 5 mM Mg2+
Conditions: protein: recombinant; tags: His (Ni-NTA purified; pMCSG7); chain copies: 2; label: 5' 6-FAM on strand 1; blunt
test.readout: Kd (nM)
Give your result in nM as a bare value.

Exam item: For 40 bp dsDNA (dsDNA) DNA 1: CAGGGTAAGTGTGGAGGTGTAGGGAAGGGAATGTTGTCTG DNA 2: CAGACAACATTCCCTTCCCTACACCTCCACACTTACCCTG , what is its reported Kd?
Marked response: 160
